Taken from PubChem BioAssay (NCI).

Test system: M14 melanoma
Run description: NCI tumour cell line growth inhibition, 48 h
Please respond with reported TGI for every item in the list.

Study these solved cases before continuing.
COc1ccc(-c2nc(N)c3ncn(C4OC(CO)C(O)C4O)c3n2)cc1 (stereo not drawn) :: > 100 µM
COc1cc(C(=O)Nc2c3ccccc3nc3ccccc23)cc(OC)c1OC :: > 100 µM

Okay, now this compound:
Briefly, TGI measured for `N=C1C(c2nc3ccccc3s2)=C(O)CN1c1ccc(Cl)cc1Cl` : > 100 µM

----------
Tested on: HOP-62 NSCLC
Run description: NCI tumour cell line growth inhibition, 48 h
Property: TGI

Study these solved cases before continuing.
O=C(O)c1cc(O)c2c(c1)Cc1cccc(O)c1C2=O :: 43 µM
Nc1nc(N)c2nc(-c3ccco3)cnc2n1 :: > 100 µM

Briefly, TGI measured for `O=C1/C(=C/c2cccs2)NC(=S)N1CN1CCOCC1` : > 100 µM

----------
Tested on: HT29 colon
Run description: NCI tumour cell line growth inhibition, 48 h; in the data active = GI50 below about 0.43 µM; inactive = the rest
Response enum: active, inactive

Use these answered entries as a reference point.
O=C1/C=C/[C@@H](O)[C@@H]2C[C@@H](O)C[C@H]2/C=C/CCC[C@H](CO)O1 :: inactive
O=C1/C(=C/c2ccccc2Br)COc2ccc(O)c(O)c21 :: inactive
COc1ccc(Cl)cc1NC(=O)c1c(NC(=O)C(F)(F)C(F)(F)F)sc2c1CCCCC2 :: inactive
CCOC(=O)c1c(C)[nH]c(/C=C2\N=C(c3ccc[nH]3)C=C2OC)c1C :: active
COc1cccc(-c2nc(-c3ccc(NC(=O)c4ccccc4)cc3)[nH]c2-c2ccnc(Br)c2)c1 :: inactive
COc1ccccc1N1CCN(C(=O)c2ccc(NS(=O)(=O)c3cccc4cccnc34)cc2)CC1 :: inactive
N#C/C(=C/C=C/c1ccccc1)S(=O)c1ccccc1 (centres undefined) :: active
NCCCn1c2c(c3cc4c(cc3c1=O)OCO4)C(=O)c1ccccc1-2 :: active

Any idea what this test logged for `Cc1ccc2c(N/N=C\c3ccco3)cc(C)nc2n1` ? inactive

----------
Tested on: SK-MEL-2 melanoma
Run description: NCI tumour cell line growth inhibition, 48 h
Property: GI50

Study these solved cases before continuing.
NC(=O)c1cc(Cl)ccc1NC(=O)c1ccccc1-c1ccccc1 :: 288 nM
O=c1ccccc(-c2ccc(-c3ccco3)cc2)c1O :: 10500 nM
Cc1ccc2c(N/N=C\c3ccco3)cc(C)nc2n1 :: 3050 nM
C[C@@H](Oc1cc(NS(=O)(=O)N2CCC2)nc(SCc2cccc(F)c2F)n1)[C@@H](O)CO :: > 100000 nM
O=C1c2cccc3cc([N+](=O)[O-])cc(c23)C(=O)N1CCN1CCCC1 :: 1880 nM
CN(C)c1ccc2cc(-c3cc4c(oc3=O)-c3ccccc3OC4O)c(=O)oc2c1 (configuration not stated) :: 3030 nM
COc1ccc(-c2csc(NC(=O)N3CCN(c4cc5c(cc4F)c(=O)c(C(=O)O)cn5C4CC4)CC3)n2)cc1 :: 2420 nM
O=C1C(Cl)=C(Nc2cccc(O)c2)C(=O)N1c1cccc(Cl)c1 :: 34700 nM
O=C1/C(=C/c2ccccc2Br)COc2ccc(O)c(O)c21 :: 1970 nM
O=C1/C=C/[C@@H](O)[C@@H]2C[C@@H](O)C[C@H]2/C=C/CCC[C@H](CO)O1 :: 2390 nM

I'm hoping you can list GI50 for every molecule here, please.
1. NCCCn1c2c(c3cc4c(cc3c1=O)OCO4)C(=O)c1ccccc1-2
2. COc1cc2c(=O)n(CCCn3ccnc3)c3c4cc5c(cc4ccc3c2cc1OC)OCO5

1. 2910 nM
2. 8060 nM

----------
Tested on: ACHN renal
Run description: NCI tumour cell line growth inhibition, 48 h
Please respond with reported GI50 for every item in the list.

Study these solved cases before continuing.
CCOC(=O)c1c(C)[nH]c(/C=C2\N=C(c3ccc[nH]3)C=C2OC)c1C :: 32.1 nM
C=C1SC(=Nc2ccccc2Cl)N(C(=O)c2sc3ccccc3c2Cl)C1(C)C :: 3240 nM

Briefly, GI50 measured for `O=c1ccccc(-c2ccc(-c3ccco3)cc2)c1O` : 437 nM

----------
Test system: SF-539 CNS
Run description: NCI tumour cell line growth inhibition, 48 h
Where a SMILES comes first, the peptide text is derived from it. The star is where a group is joined. Boc = CC(C)(C)OC(=O)*
Property: TGI

Study these solved cases before continuing.
N#CC(C(=O)CCC(=O)Nc1ccc(Cl)cc1)c1ccccc1Cl (centres undefined) :: > 100 µM
COc1cc(C)[nH]c(=O)c1CN1CCc2c(Cl)cc([C@H](OC)C3COC3)c(Cl)c2C1=O :: > 100 µM
CCOCC(NC(=O)C(CC(C)C)NC(=O)OC(C)(C)C)C(N)=O (stereo not drawn) (Boc-Leu-Ser(Et)-NH2; configuration not given here) :: > 100 µM
COc1cc2ccc(/C(C)=N/OC(C)=O)cc2cc1OC :: > 100 µM
Cc1ccc(O)c(-c2csc(NCN3CCN(CNc4nc(-c5cc(C)ccc5O)cs4)CC3)n2)c1 :: > 100 µM
Cc1ccc2cccc3c2c1CC1(C3=O)S(=O)(=O)OCCOS1(=O)=O :: > 100 µM
NCC1OC(n2cnc3c(=O)[nH]c(N)nc32)C(O)C1O (centres undefined) :: > 100 µM
O=C(O)CCSC(=O)Nc1cccc([N+](=O)[O-])c1 :: > 100 µM
O=S1c2ccccc2N=C(c2ccc(Cl)cc2)CC1c1cccs1 (centres undefined) :: 32.5 µM
N#C/C(=C/C=C/c1ccccc1)S(=O)c1ccccc1 (centres undefined) :: 1.07 µM

I'm hoping you can list TGI for every compound here, please.
1. CC(C)Cc1ccc(C(C)/C=C2\CCC(CN3CCCC3)C2=O)cc1 (centres undefined)
2. Fc1cc(-c2ncc(Cl)cc2Cl)c2cccccc1-2
3. Cc1ccc(NC(=O)CC/C(CC(=O)c2ccc(Cl)cc2)=N\NC(=O)C(=O)NN)cc1C
4. COc1cc(C2SCC(=O)N2c2ccc(Cl)cc2)cc(I)c1O (centres undefined)

1: 15.4 µM; 2: > 100 µM; 3: > 100 µM; 4: > 100 µM

----------
System: OVCAR-5 ovarian
Run description: NCI tumour cell line growth inhibition, 48 h
Property: TGI

CC[C@@]1(O)C(=O)OCc2c1cc1n(c2=O)Cc2c-1nc1ccccc1c2/C=N\NC(=O)C(N)Cc1cnc[nH]1 (stereo partly drawn) :: > 54.6 µM

I'm hoping you can list TGI for every compound here, please.
1. CC(=O)Nc1ccc2oc(=O)c3ccccc3c2c1
2. CC(C)NC(=O)OCc1c(COC(=O)NC(C)C)c(-c2ccc[n+](COC(=O)C3CC3)c2)n2c1CCC2

> 100 µM
> 100 µM

----------
Tested on: UO-31 renal
Run description: NCI tumour cell line growth inhibition, 48 h; in the data active means GI50 below about 0.43 µM; inactive means the rest
Response enum: Y (active), N (inactive)

Use these answered entries as a reference point.
N=C1C(c2nc3ccccc3s2)=C(O)CN1c1ccc(Cl)cc1Cl :: N
O=C1/C=C/[C@@H](O)[C@@H]2C[C@@H](O)C[C@H]2/C=C/CCC[C@H](CO)O1 :: N
C=C1SC(=Nc2ccccc2Cl)N(C(=O)c2sc3ccccc3c2Cl)C1(C)C :: N
Oc1cccc(Cn2c(-c3cccc(O)c3O)nc3ccccc32)c1O :: N
O=C(O[C@H]1CN[C@H](C#Cc2cc3ncnc(Nc4ccc(OCc5cccc(F)c5)c(Cl)c4)c3s2)C1)N1CCOCC1 :: N

Any idea what this test logged for `Cc1cccc2c1NC(=O)[C@@]21[C@H](C(=O)c2ccccc2)[C@]2(C(=O)Nc3ccccc32)[C@H]2CCCN21` ? N

----------
Tested on: XF 498 CNS
Run description: NCI tumour cell line growth inhibition, 48 h
Property: TGI

CCCC1C(=O)C(CC)Cc2c(OC)ccc(OC)c21 (centres undefined) :: > 100 µM
CC(C)c1cccc(C(C)C)c1N=C(N)C#N :: > 100 µM

I'm hoping you can list TGI for every compound here, please.
1. S=P(c1ccccc1)(c1ccccc1)C1(C2(P(=S)(c3ccccc3)c3ccccc3)CC2)CC1
2. CC1=C2C(=O)C(C)(C)C=C2C(=O)[C@](C)(O)C12CC2

1: > 100 µM; 2: > 1 µM

----------
Please respond with reported TGI for every item in the list.
Tested on: MDA-MB-435
Run description: NCI tumour cell line growth inhibition, 48 h

Study these solved cases before continuing.
COc1ccc(CCCC(=O)O)c(C)c1 :: > 100 µM
CCc1n[nH]c(=O)n1NC(=O)c1ccccc1C(=O)O :: > 100 µM

I'm hoping you can list TGI for every compound here, please.
1. COC(=O)c1ccc(CCc2cc(O)c(Br)cc2O)cc1
2. N#C[C@@]12CCCC(=O)[C@@H]1[C@H]1CCC[C@H]12
3. Cc1ccc(C(=O)CCC2C(=O)CC(C)(C)CC2=O)cc1
4. O=C1CCCCC[C@]12SC[C@H]1CON=C12
5. CCN(CC)Cc1cc(Nc2ccnc3cc(Cl)ccc23)cc(-c2ccc(Cl)cc2)c1O

22.6 µM
33.5 µM
> 100 µM
39.5 µM
> 100 µM
